Data provenance is paper PMC7419507.

assay-summary: Cytotoxicity assay (CellTiter-Glo, 72 h), MESO-1
Format: cell-based
test-settings: human, MESO-1 malignant pleural mesothelioma cells, conc 0.0976562 uM; raw replicate data; read-out: MESO1 viability (%)
Category | rule: reported viability at 72 h, 0.0976562 uM within range, see bin A = under 80%, bin B = from 80% up to 90%, bin C = 90% and over

{"molecule": "CO[C@H]1C[C@@H]2CC[C@@H](C)[C@@](O)(O2)C(=O)C(=O)N2CCCC[C@H]2C(=O)O[C@H]([C@H](C)C[C@@H]2CC[C@@H](O)[C@H](OC)C2)CC(=O)[C@H](C)/C=C(\\C)[C@@H](O)[C@@H](OC)C(=O)[C@H](C)C[C@H](C)/C=C/C=C/C=C/1C [Compound 1, rapamycin, reference compound]", "label-value": "bin A"}
{"molecule": "COC1CC2CCC(C)C(O)(O2)C(=O)C(=O)N2CCCCC2C(=O)OC(C(C)CC2CCC(O)C(OC)C2)CC(=O)C(C)C=C(C)C(O)CC(=O)C(C)C=C(C)C=CC=CC=C1C (stereo not drawn)", "label-value": "bin C"}
{"molecule": "CO[C@H]1C[C@@H]2CC[C@@H](C)[C@@](O)(O2)C(=O)C(=O)N2CCCC[C@H]2C(=O)O[C@H]([C@H](C)C[C@@H]2CC[C@@H](O)[C@H](OC)C2)CC(=O)[C@H](C)/C=C(\\C)[C@@H](O)CC(=O)[C@H](C)C[C@H](C)/C=C/C=C(C)/C=C/1C", "label-value": "bin C"}

Moving on to the next molecule.
[in] Record CO[C@@H]1/C=C/C=C/[C@@H](C)C[C@@H](C)C(=O)C[C@H](O)/C(C)=C/[C@@H](C)C(=O)C[C@@H]([C@H](C)C[C@@H]2CC[C@@H](O)[C@H](OC)C2)OC(=O)[C@@H]2CCCCN2C(=O)C(=O)[C@]2(O)O[C@@H](CC[C@H]2C)C1 — which class?
[out] bin B
